# test-system: canine FcRn/B2M protein complex (canine FcRn ECD with C-terminal poly-His tag and canine Beta-2-Microglobulin) (canine)
# assay-procedure: SPR Biacore T200 steady state, pH 6.0, 25 C; Fc on CM5 chip, FcRn/B2M 12.5-200 nM
readout: pKd
Interpret pKd as the negative base-10 log of the concentration measured in mol/L.

Q) Please look up its pKd: variant canine IgG-B Fc polypeptide L(24)F (protein, not shown: small tags and cut ends) CPAPEMLGGPSVFIFPPKPKDTLFIARTPEVTCVVVDLDPEDPEVQISWFVDGKQMQTAKTQPREEQFNGTYRVVSVLPIGHQDWLKGKQFTCKVNNKALPSPIERTISKARGQAHQPSVYVLPPSREELSKNTVSLTCLIKDFFPPDIDVEWQSNGQQEPESKYRTTPPQLDEDGSYFLYSKLSVDKSRWQRGDTFICAVMHEALHNHYTQESLSHSPGK
A) 6.44

Q) Try variant canine IgG-B Fc polypeptide L(24)M (protein, not shown: small tags and cut ends) CPAPEMLGGPSVFIFPPKPKDTLMIARTPEVTCVVVDLDPEDPEVQISWFVDGKQMQTAKTQPREEQFNGTYRVVSVLPIGHQDWLKGKQFTCKVNNKALPSPIERTISKARGQAHQPSVYVLPPSREELSKNTVSLTCLIKDFFPPDIDVEWQSNGQQEPESKYRTTPPQLDEDGSYFLYSKLSVDKSRWQRGDTFICAVMHEALHNHYTQESLSHSPGK next.
A) 6.39

Q) Same question for variant canine IgG-B Fc polypeptide L(24)Y (protein, not shown: small tags and cut ends) CPAPEMLGGPSVFIFPPKPKDTLYIARTPEVTCVVVDLDPEDPEVQISWFVDGKQMQTAKTQPREEQFNGTYRVVSVLPIGHQDWLKGKQFTCKVNNKALPSPIERTISKARGQAHQPSVYVLPPSREELSKNTVSLTCLIKDFFPPDIDVEWQSNGQQEPESKYRTTPPQLDEDGSYFLYSKLSVDKSRWQRGDTFICAVMHEALHNHYTQESLSHSPGK please.
A) 6.95

Q) Another binder to look at: wild-type canine IgG-B Fc polypeptide (protein, not shown: small tags and cut ends) CPAPEMLGGPSVFIFPPKPKDTLLIARTPEVTCVVVDLDPEDPEVQISWFVDGKQMQTAKTQPREEQFNGTYRVVSVLPIGHQDWLKGKQFTCKVNNKALPSPIERTISKARGQAHQPSVYVLPPSREELSKNTVSLTCLIKDFFPPDIDVEWQSNGQQEPESKYRTTPPQLDEDGSYFLYSKLSVDKSRWQRGDTFICAVMHEALHNHYTQESLSHSPGK
A) 5.90

Q) Proceed to YTE variant canine IgG-B Fc polypeptide (Leu24Tyr, Ala26Thr, Thr28Glu) (protein, not shown: small tags and cut ends) CPAPEMLGGPSVFIFPPKPKDTLYITREPEVTCVVVDLDPEDPEVQISWFVDGKQMQTAKTQPREEQFNGTYRVVSVLPIGHQDWLKGKQFTCKVNNKALPSPIERTISKARGQAHQPSVYVLPPSREELSKNTVSLTCLIKDFFPPDIDVEWQSNGQQEPESKYRTTPPQLDEDGSYFLYSKLSVDKSRWQRGDTFICAVMHEALHNHYTQESLSHSPGK
A) 7.06
